- Test system: TLR9
- METHOD_DESCRIPTION: TLR9-induced IFNalpha in isolated human pDCs (CpG2216, AlphaLISA)
- Assay type: cell-based
- EXPERIMENTAL_CONDITIONS: read-out: TLR9-ligand induced IFNα in human pDCs IC50
List of pIC50 values.
// field semantics: pIC50 = negative decimal log of concentration (mol/L)

{"SMILES_TEXT": "COc1ncc(N2CCc3ncnc(O[C@H]4CCN(C(=O)C5CCOCC5)C4)c3C2)cc1C", "SUBJECT_OF_TEST": "TLR9", "pIC50": 7.30}

Attention now shifts to the item below.
Task: Item CCC(=O)N1CC[C@H](Nc2ncnc3c2CN(c2cnc(OC)c(C(F)(F)F)c2)CC3)C1 has what recorded pIC50?
Result: 7.48

Entry source: patent US9949979B2
